target: human CD33 L103A (human, UniProt P20138 18-364); assay: flow cytometry on HEK293-T, alanine scan
Sequence (P20138 18-364 L103A limits assumed): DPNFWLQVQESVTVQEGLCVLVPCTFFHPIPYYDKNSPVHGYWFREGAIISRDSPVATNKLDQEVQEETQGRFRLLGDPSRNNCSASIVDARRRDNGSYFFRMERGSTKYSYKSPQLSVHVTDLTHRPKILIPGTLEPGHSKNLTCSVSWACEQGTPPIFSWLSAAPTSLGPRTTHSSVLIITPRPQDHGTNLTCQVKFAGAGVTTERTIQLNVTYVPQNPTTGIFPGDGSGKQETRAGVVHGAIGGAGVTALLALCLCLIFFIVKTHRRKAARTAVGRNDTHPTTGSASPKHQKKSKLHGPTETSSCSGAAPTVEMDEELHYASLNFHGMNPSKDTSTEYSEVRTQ
Mean % WT Binding for assorted binders
Express it in % WT binding; write the number only.

Use the examples below as a reference point.
[
  {
    "BINDER": "Refmab #4 (antibody, V domains shown, The alanine scan used IgG or Fab) VH: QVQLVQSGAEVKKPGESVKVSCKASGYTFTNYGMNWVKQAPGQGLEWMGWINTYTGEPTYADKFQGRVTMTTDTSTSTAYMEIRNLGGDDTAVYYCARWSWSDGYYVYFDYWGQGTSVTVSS VL: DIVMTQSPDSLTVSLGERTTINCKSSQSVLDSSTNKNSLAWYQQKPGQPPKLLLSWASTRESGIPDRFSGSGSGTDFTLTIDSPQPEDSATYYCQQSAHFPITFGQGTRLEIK",
    "PARAMETER": "Mean % WT Binding",
    "MEASUREMENT_UNITS": "% WT binding",
    "OBSERVED_RESULT": 85.9
  },
  {
    "BINDER": "Refmab #3 (antibody, V domains shown, The alanine scan used IgG or Fab) VH: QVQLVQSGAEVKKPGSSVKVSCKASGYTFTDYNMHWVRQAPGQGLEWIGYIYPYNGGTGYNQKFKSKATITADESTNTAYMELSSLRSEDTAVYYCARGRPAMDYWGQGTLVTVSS VL: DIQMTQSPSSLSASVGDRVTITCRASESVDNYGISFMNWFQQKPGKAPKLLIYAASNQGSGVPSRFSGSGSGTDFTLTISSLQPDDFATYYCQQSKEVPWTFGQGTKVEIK",
    "PARAMETER": "Mean % WT Binding",
    "MEASUREMENT_UNITS": "% WT binding",
    "OBSERVED_RESULT": 113
  },
  {
    "BINDER": "Refmab #1 (antibody, V domains shown, The alanine scan used IgG or Fab; also called hP67.6) VH: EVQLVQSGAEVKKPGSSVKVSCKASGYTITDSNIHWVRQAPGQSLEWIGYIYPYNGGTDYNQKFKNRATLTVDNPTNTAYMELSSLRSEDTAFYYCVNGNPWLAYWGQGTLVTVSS VL: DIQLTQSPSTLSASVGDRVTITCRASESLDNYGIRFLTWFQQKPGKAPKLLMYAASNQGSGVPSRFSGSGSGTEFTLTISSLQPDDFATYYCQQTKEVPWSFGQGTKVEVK",
    "PARAMETER": "Mean % WT Binding",
    "MEASUREMENT_UNITS": "% WT binding",
    "OBSERVED_RESULT": 96.3
  }
]

Turning now to a further record.
In: Return Mean % WT Binding (reported value) for this binder: Refmab #2 (antibody, V domains shown, The alanine scan used IgG or Fab) VH: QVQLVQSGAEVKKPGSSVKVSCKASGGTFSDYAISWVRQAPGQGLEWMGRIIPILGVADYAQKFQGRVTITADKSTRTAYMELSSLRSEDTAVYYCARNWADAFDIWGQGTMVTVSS VL: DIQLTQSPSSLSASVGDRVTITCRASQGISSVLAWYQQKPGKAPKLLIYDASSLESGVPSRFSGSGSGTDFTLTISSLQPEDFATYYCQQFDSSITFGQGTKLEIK
Out: 110
